# experiment-description: Pharmacokinetics in C57BL/6 mice
# Type: in vivo, mouse
# conditions: male, C57BL/6, plasma; Mouse, PO 10 mg/kg

{"compound": "N#C[C@@]1(c2ccc3c(N)ncnn23)O[C@H](CO)[C@@H](O)[C@H]1O [GS-441524]", "half-life [h]": 3.9}
